Test system: Inhibin beta A chain (activin A)
Test: small molecules binding activin A – biochemical, small-molecule microarray, 635 nm fluorescence scan, primary screen (AID 1107);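 further: mouse activin A protein probed at 4.33 µg/mL on printed slides; score merges bound-protein fluorescence near 667 nm with spot signal-to-noise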
Conditions: INHBA, higher = more signal
The threshold is inclusive: composite z-score of exactly 1 counts as Satisfied; values below receive Not satisfied.

Illustrative cases are given below, each with its answer.
compound=CCCCCCC#C[Si](O[C@H](c1ccccc1)c1cn(Cc2cccc(Cl)c2)nn1)(C(C)C)C(C)C discretelabel="Not satisfied"
compound=C=C(COC)C(=O)CC[C@H](OC(=O)c1ccccc1-c1ccccc1C(=O)O)c1ccc(OCCO)cc1 discretelabel=Satisfied
compound=COc1cccc(C[C@H]2C[C@@H](CO[Si](C(C)C)(C(C)C)C(C)C)N3C(=O)[C@]4(C(C)=O)O[C@]23[C@H]2C(=O)N(C)C(=O)[C@H]24)c1 discretelabel="Not satisfied"
compound="O=C1C2C=CC(C(O)c3cccc4ccccc34)N(Nc3ccccc3)C2C(=O)N1c1ccccc1 (stereo unspecified)" discretelabel=Satisfied
compound=CCOC(=O)C1=CC[C@@H](c2ccccc2)N(S(=O)(=O)c2ccc(C)cc2)[C@H]1C=C(C)C discretelabel=Satisfied

**Q:** Is reported composite z-score greater than or equal to 1 here: COc1cc2c(cc1OC)CN(C(=O)[C@@H]1[C@H]3C(=O)O[C@H](c4ccccc4)[C@H](c4ccccc4)N3[C@H](c3ccc(OCCO)cc3)[C@@]13C(=O)Nc1ccc(C#CCCO)cc13)CC2
**A:** Not satisfied

**Q:** Confirm if composite z-score reported for the compound CCCNC(=O)[C@@]1(Sc2ccc(C)cc2)CC(=O)N(Cc2ccccc2)[C@@H]1c1ccc(CO)cc1I is 1 or above.
**A:** Satisfied

**Q:** Quick check, composite z-score >= 1? COC(=O)[C@H]1N=C(c2ccc(OCCCO)cc2)O[C@H]1c1ccccc1CN=[N+]=[N-]
**A:** Not satisfied

**Q:** For this compound, is measured composite z-score 1 or higher? O=C1CSC(c2cccc([N+](=O)[O-])c2)N1c1ccccc1 (stereo unspecified)
**A:** Not satisfied

**Q:** Does COCCOC(=O)N1C(=O)[C@@]2(c3cc(C#CCNC(N)=O)ccc31)[C@H](c1ccc(OCCO)cc1)N1[C@H](c3ccccc3)[C@H](c3ccccc3)OC(=O)[C@H]1[C@@H]2C(=O)N1CCN(c2ncccn2)CC1 have a reported composite z-score of at least 1?
**A:** Satisfied

----------
Assay: forskolin-driven CRE-LacZ activity in PC12 – cell-based, CRE-LacZ reporter, forskolin-stimulated, primary screen (AID 1146);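 further: PC12 cells with 6xCRE LacZ reporter stimulated by forskolin 10 µM; beta-galactosidase reporter signal reflecting CREB driven transcription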
Settings: luminescence, 4.5 h, called active from +8 up or from −8 down
The source made the active and inactive calls.
Can you answer with just one of these options? active, inactive

compound=CC(C)CNC(=O)[C@@]1(c2ccc([N+](=O)[O-])cc2)CC(=O)N(C(C)C)[C@@H]1c1ccc(CO)cc1 discretelabel=inactive

**Q:** Hi team, can someone confirm the assay call for COc1ccccc1CN1C(=O)c2ccccc2[C@@]2(Cc3ccccc3N(C3CC3)C2=O)[C@@H]1c1ccc(CO)cc1 ?
**A:** inactive

----------
Listed here: items and their measured z-score.
Molecular target: Luciferin 4-monooxygenase (Photinus pyralis) (UniProt P08659)
Sequence (P08659 whole entry, looked up): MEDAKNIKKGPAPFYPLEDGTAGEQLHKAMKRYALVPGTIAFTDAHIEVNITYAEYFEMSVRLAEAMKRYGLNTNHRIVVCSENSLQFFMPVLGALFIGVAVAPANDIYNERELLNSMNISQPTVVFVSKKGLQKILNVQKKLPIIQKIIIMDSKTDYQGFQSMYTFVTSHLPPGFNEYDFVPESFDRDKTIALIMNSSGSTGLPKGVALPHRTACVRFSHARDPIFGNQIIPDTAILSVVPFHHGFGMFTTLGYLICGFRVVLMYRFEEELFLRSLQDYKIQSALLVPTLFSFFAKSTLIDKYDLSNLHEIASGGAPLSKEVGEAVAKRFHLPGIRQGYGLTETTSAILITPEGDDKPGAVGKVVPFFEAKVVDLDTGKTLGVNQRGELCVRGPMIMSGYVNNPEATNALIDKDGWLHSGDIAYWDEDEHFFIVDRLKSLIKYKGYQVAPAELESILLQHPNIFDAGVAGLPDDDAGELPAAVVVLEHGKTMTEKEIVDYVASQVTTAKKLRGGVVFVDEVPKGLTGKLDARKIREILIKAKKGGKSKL
Assay: inhibition of purified Photinus pyralis luciferase – biochemical, luminescence, purified enzyme, 2006 set, primary screen (AID 1141);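 further: cell-free assay with purified firefly luciferase at 100 ng per well in PBS; test concentration not given here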
Conditions: purified firefly luciferase, SteadyGlo luminescence, 30 min; higher = more signal, called active from +8 up or from −8 down
In your answer, state the number alone without any accompanying words.

As a guide, the following entries are already answered.
compound=NCCCCCCNC(=O)[C@H]1C[C@H]2C(=O)N3CCC[C@H]3C(=O)N2[C@H]1c1ccc(O)cc1 system="Luciferin 4-monooxygenase (Photinus pyralis) (UniProt P08659)" recordedendpoint=z-score reading=0.24
compound=O=C1N(Cc2ccccc2)c2ccccc2[C@H]2OC(c3ccc(OCCCO)cc3)=N[C@@]12CCS(=O)(=O)c1ccccc1 system="Luciferin 4-monooxygenase (Photinus pyralis) (UniProt P08659)" recordedendpoint=z-score reading=-0.202
compound=Cc1ccc(S[C@]2(C(=O)O)CC(=O)N(C3CCCCC3)[C@@H]2c2ccc(CO)cc2)cc1 system="Luciferin 4-monooxygenase (Photinus pyralis) (UniProt P08659)" recordedendpoint=z-score reading=0.186
compound="CN1C(=O)C2C=CC(C(O)COCc3ccccc3)N(Nc3ccccc3)C2C1=O (stereo not given)" system="Luciferin 4-monooxygenase (Photinus pyralis) (UniProt P08659)" recordedendpoint=z-score reading=0.982
compound=CC(C)(C)OC(=O)CC[C@@]1(C(=O)N2CCCCC2)N=C(c2ccc(OCCCO)cc2)O[C@@H]1c1ccccc1N=[N+]=[N-] system="Luciferin 4-monooxygenase (Photinus pyralis) (UniProt P08659)" recordedendpoint=z-score reading=-11.7

**Q:** Item CCCCC=C[C@@H](NC(=O)CCc1ccccc1)c1ccccc1 has what recorded z-score?
**A:** 1.08

**Q:** Give its z-score value. Item: COC(=O)[C@@]1(Cc2ccccc2)[C@H]2c3cc(C(=O)N4CCCC4)n(CCO)c3C[C@H]2CN1C(=O)c1ccccc1
**A:** 0.891

----------
Assay: FRG1 expression reporter modulators in myotubes – cell-based, C2C12 myotubes, firefly/Renilla luciferase, luminescence, FRG1 inhibition for FSHD, primary screen (AID 1084)
Conditions: FRG1 promoter luciferase, higher = more signal, called active from +8 up or from −8 down
Assign class by z-score: not lower than -0.4 means 1.0; lower than -0.4 means 0.0.

// below: answered compounds
compound="N#Cc1ccc(NN2C(C(O)c3ccco3)C=CC3C(=O)N(c4ccccc4)C(=O)C32)cc1 (configuration not stated)" discretelabel=1.0
compound=COC(=O)[C@@]1(Cc2ccc(OC)cc2)[C@H]2c3cc(C(=O)N4CCCC4)n(CCF)c3C[C@H]2CN1C(=O)c1ccccc1 discretelabel=1.0
compound="C=CCC(OC(C)=O)[C@@H]1[C@@H](N(Cc2cccc3ccccc23)C(=O)c2ccc(C)cc2)c2cc(OCCCO)ccc2N1C(=O)c1ccc2ccccc2c1 (some centres not stated)" discretelabel=0.0
compound=CC(C)(C)OC(=O)CC[C@@]1(C(=O)N2CCCCC2)N=C(c2ccc(OCCCO)cc2)O[C@@H]1c1ccccc1N=[N+]=[N-] discretelabel=0.0
compound="Cc1cc(C)c(C(O)C2C=CC3C(=O)N(c4ccccc4)C(=O)C3N2Nc2ccccc2)c(C)c1 (configuration not stated)" discretelabel=1.0

**Q:** State whether the measured z-score reaches -0.4, counting equality as reaching it, for CCCCC(=C=CC[C@H](O)c1cccc(OCCO)c1)C[C@H](O)COCc1ccccc1
**A:** 0.0

----------
Molecular target: E3 ubiquitin-protein ligase XIAP (Homo sapiens) (UniProt P98170)
Sequence (P98170 whole entry, looked up): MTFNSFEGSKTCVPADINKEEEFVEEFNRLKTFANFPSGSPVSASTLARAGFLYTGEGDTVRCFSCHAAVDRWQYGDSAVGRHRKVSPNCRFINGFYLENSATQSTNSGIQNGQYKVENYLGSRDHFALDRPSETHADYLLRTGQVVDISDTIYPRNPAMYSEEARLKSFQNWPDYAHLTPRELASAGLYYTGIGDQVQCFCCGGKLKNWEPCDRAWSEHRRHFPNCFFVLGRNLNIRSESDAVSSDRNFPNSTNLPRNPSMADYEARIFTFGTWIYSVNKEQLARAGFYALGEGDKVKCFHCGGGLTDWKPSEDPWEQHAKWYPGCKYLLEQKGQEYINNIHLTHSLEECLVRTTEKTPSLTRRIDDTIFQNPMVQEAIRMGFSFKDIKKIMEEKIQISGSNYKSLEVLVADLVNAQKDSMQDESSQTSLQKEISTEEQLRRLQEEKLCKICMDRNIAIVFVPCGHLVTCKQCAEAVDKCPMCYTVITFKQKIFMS
Assay: small molecules binding XIAP protein – biophysical, small-molecule microarray, fluorescence 635 nm, primary screen (AID 1181);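 further: score merges 667 nm emission and signal to noise over triplicate slides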
Conditions: higher = more signal
recordedEndpoint: composite z-score
// no unit, no text: just the number

Some solved entries appear below for comparison.
molecule="N#Cc1ccc(NN2C(C(O)c3ccccc3)C=CC3C(=O)N(c4ccccc4)C(=O)C32)cc1 (stereo unspecified)" system="E3 ubiquitin-protein ligase XIAP (Homo sapiens) (UniProt P98170)" recordedendpoint="composite z-score" reading=-0.0062
molecule="C[C@H]1NC(=O)C([C@@H](C)OCc2ccccc2)NC(=O)[C@@]23C(=O)N[C@@H](Cc4ccccc4)C2[C@H](C)[C@@]2(C)O[C@H]2C3/C=C/CC/C=C/CNC1=O (stereo partly specified)" system="E3 ubiquitin-protein ligase XIAP (Homo sapiens) (UniProt P98170)" recordedendpoint="composite z-score" reading=0.13
molecule=C=C(/C(=C/C[C@@H](OC(=O)c1ccncc1)c1cccc(OCCO)c1)c1cc(C(=O)OC)ccc1OC)C(C)C system="E3 ubiquitin-protein ligase XIAP (Homo sapiens) (UniProt P98170)" recordedendpoint="composite z-score" reading=-0.107
molecule=C=C(/C(=C/C[C@@H](OC(=O)c1ccncc1)c1ccccc1OCCO)c1cnc2ccccc2c1)C(C)C system="E3 ubiquitin-protein ligase XIAP (Homo sapiens) (UniProt P98170)" recordedendpoint="composite z-score" reading=0.326
molecule=C=CCOC(=O)[C@H]1[C@@H]2C(=O)O[C@@H](c3ccccc3)[C@@H](c3ccccc3)N2[C@@H](c2ccc(OCCOC(=O)[C@H]3C[C@H]4C(=O)N[C@@H](CCCCN(C)C)C(=O)N4[C@H]3c3ccc(O)cc3)cc2)[C@]12C(=O)Nc1ccccc12 system="E3 ubiquitin-protein ligase XIAP (Homo sapiens) (UniProt P98170)" recordedendpoint="composite z-score" reading=0.0425

Consider the additional molecule presented here.
**Q:** Query: composite z-score; subject: O=C(O)[C@]1(CCS(=O)(=O)c2ccccc2)N=C(c2ccc(OCCCO)cc2)O[C@@H]1c1ccccc1
**A:** -0.0988

----------
Assay: binders from COS7 lysate, DM2A8 probe, primary screen, torsin A project, cell lysate, small-molecule microarray, fluorescence 635/667 (AID 1065)
Settings: higher = more signal, COS7 lysate expressing mutant human TOR1A
Criterion: composite z-score meeting or surpassing -0.2. Met: True. Not met: False.

Please review the following examples before continuing.
molecule=O=C1C[C@@](C(=O)O)(c2ccc([N+](=O)[O-])cc2)[C@@H](c2ccc(CO)cc2)N1CC12CC3CC(CC(C3)C1)C2 discretelabel=True
molecule=CCOC(=O)C[C@H]1[C@H](OC(=O)Cc2ccc3c(c2)OCO3)[C@@H](NC(=O)c2ccccc2)c2cc(OCCCO)ccc2N1C(=O)c1ccc2ccccc2n1 discretelabel=True
molecule="C=C(C)[C@@H]1CC=C(C(O)C2C=CC3C(=O)N(C4CCCCC4)C(=O)C3N2Nc2ccc(OC)cc2)CC1 (some centres not stated)" discretelabel=True
molecule=CO[C@H]1O[C@H](CO)[C@@H](OC(=O)c2ccc(Br)cc2)[C@@H]2OC(=O)[C@H](Cc3cccc(Br)c3)C/C=C/C[C@@H](Cc3cccc(Br)c3)C(=O)O[C@@H]12 discretelabel=True

**Q:** Say whether COC(=O)[C@]1(Cc2ccccc2CN=[N+]=[N-])N=C(c2ccc(OCCCO)cc2)O[C@@H]1c1ccccc1 shows composite z-score of -0.2 or more.
**A:** False

**Q:** Hello, I need to know if COC(=O)[C@@]1(Cc2ccc(F)cc2)[C@H]2c3cc(C(=O)N4CCCC4)n(Cc4ccccc4)c3C[C@H]2CN1C(=O)c1ccccc1 has measured composite z-score not below -0.2. Thanks!
**A:** False

**Q:** composite z-score >= -0.2 for O=C1c2ccccc2C(=O)C2CC([C@H]3Oc4ccccc4S(=O)(=O)N4CCC[C@@H]34)=CCC12 (some centres not stated) ?
**A:** True
